Tested on: Staphylococcus aureus
Assay protocol: Antibiofilm activity against methicillin-resistant Staphylococcus aureus BAA-43300
Format: functional
pIC50: −log10 of the molar value.

{"Item smiles": "CCCCCc1ccc(C(=O)NCCn2cc(CCCCCc3c[nH]c(NCc4ccc(CCCC)cc4)n3)nn2)cc1", "pIC50": "4.74 to 4.80"}

----------
Assay protocol: Inhibition of bacterial CMY by measuring nitrocefin degradation
Parameters: species or system Bacteria

{"Item smiles": "O=C(O)C[C@@H]1CC[C@H](NC(=O)Cc2cccs2)B(O)O1", "Ki": "29 to 99 nM"}

----------
Each entry below carries its reported MIC.
Test system: Escherichia coli
Assay protocol: Antibacterial activity against multi drug-resistant Escherichia coli EM5 mutant after 24 hrs by serial dilution method
Format: functional
Measured metric: MIC

{"Molecule": "O=C1CC[C@H](O)c2ccccc21 [(-)-4-HYDROXY-ALPHA-TETRALONE]", "Measured metric": "MIC", "Measured": "250 to 1000 µg/mL"}
{"Molecule": "CCCCCCCCCCCCCCCC(=O)O[C@H]1CCC(=O)c2ccccc21", "Measured metric": "MIC", "Measured": "250 to 1000 µg/mL"}
{"Molecule": "O=C(O[C@H]1CCC(=O)c2ccccc21)c1ccccc1", "Measured metric": "MIC", "Measured": "250 to 1000 µg/mL"}
{"Molecule": "COc1cc(C(=O)O[C@H]2CCC(=O)c3ccccc32)cc(OC)c1OC", "Measured metric": "MIC", "Measured": "250 to 1000 µg/mL"}
{"Molecule": "O=C(/C=C/c1ccccc1)O[C@H]1CCC(=O)c2ccccc21", "Measured metric": "MIC", "Measured": "250 to 1000 µg/mL"}
{"Molecule": "CCCCCCCCCCCCCC(=O)O[C@H]1CCC(=O)c2ccccc21", "Measured metric": "MIC", "Measured": "250 to 1000 µg/mL"}

----------
Assay protocol: Inhibition of Escherichia coli KPC-2 using nitrocefin as substrate preincubated for 5 mins followed by substrate addition
Measured metric: IC50

{"Compound": "O=C(Cc1cccs1)NC(Cn1cc(C(=O)O)nn1)B(O)O (stereo unspecified)", "Measured metric": "IC50", "Measured": "0.084 µM"}

The origin of these recorded values is ChEMBL document CHEMBL4024742.
